Reported DC50 values are given for each entry in this list.
- Target or test system: SMARCA2 (Homo sapiens)
- Sequence (P51531 whole entry): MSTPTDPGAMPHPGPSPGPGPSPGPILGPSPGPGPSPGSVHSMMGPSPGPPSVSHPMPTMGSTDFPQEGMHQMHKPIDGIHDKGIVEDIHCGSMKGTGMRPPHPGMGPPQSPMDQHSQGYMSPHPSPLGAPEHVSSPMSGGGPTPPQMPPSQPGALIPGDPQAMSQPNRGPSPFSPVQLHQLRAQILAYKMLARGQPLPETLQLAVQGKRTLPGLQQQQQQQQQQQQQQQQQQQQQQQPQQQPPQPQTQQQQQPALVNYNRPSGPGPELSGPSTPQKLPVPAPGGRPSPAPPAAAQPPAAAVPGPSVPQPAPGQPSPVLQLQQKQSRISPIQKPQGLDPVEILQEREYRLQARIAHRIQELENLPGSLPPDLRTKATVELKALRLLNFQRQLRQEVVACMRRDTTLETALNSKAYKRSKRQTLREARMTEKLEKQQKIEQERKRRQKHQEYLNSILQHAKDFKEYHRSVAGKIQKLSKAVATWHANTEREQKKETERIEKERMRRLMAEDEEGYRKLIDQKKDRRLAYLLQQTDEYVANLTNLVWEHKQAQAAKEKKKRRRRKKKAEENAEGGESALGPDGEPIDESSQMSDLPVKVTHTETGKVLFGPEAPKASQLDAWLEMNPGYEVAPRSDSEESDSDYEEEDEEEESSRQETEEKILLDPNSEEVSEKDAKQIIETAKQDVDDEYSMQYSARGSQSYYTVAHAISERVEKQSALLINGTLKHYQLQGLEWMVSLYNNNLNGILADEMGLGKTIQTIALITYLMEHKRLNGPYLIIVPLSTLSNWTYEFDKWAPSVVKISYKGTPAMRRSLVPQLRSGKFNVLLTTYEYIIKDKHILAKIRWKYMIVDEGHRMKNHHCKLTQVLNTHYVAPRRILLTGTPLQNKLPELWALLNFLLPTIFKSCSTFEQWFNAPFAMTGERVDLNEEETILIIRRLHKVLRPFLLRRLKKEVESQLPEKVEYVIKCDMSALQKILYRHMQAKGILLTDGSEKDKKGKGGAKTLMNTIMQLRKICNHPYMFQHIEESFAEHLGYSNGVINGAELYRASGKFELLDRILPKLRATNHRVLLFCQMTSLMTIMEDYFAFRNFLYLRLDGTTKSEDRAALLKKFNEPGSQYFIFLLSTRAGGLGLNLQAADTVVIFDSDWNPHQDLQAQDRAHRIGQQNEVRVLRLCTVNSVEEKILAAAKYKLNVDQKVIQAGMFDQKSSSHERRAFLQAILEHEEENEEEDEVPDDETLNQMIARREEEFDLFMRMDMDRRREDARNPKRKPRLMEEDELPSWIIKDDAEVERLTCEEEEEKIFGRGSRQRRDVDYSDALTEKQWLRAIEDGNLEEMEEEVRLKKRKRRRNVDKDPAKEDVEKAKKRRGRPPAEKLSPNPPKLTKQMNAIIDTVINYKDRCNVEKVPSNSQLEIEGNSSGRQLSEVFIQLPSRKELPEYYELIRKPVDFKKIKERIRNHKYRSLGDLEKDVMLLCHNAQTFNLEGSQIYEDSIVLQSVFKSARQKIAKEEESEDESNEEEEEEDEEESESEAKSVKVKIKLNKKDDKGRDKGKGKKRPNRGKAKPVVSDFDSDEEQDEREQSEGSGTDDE
- Experimental protocol: MSD SMARCA2 degradation in A549 cell line
- Assay type: cell-based
- Assay conditions: A549 cells, 24 h, read-out: SMARCA2 MSD A549 degradation 24 h: Average external-Abs DC50

compound=C#Cc1ccc(CNC(=O)[C@@H]2C[C@@H](O)CN2C(=O)[C@@H](NC(=O)N2CC3(CC(N4CCC(c5cnc(N6CCc7[nH]c8nnc(-c9ccccc9O)cc8c7[C@H]6C)nc5)CC4)C3)C2)C(C)(C)C)cc1F reported_result="10 to 50 nM"

# input Provide only the value of recorded DC50 for C#Cc1ccc(CNC(=O)[C@@H]2C[C@@H](O)CN2C(=O)[C@@H](NC(=O)[C@H]2CCC3(CC2)C[C@H](N2CCN(c4cnc(N5CCN6c7cc(-c8ccccc8O)nnc7NC[C@H]6C5)nc4)CC2)C3)C(C)(C)C)c(OC)c1 (single isomer, unassigned) [I-195]
# output 10 to 50 nM

# input Name the recorded DC50 of the item C#Cc1ccc(CNC(=O)[C@@H]2C[C@@H](O)CN2C(=O)[C@@H](NC(=O)N2CC3(CN(CC4CCN(c5cnc(N6CCc7[nH]c8nnc(-c9ccccc9O)cc8c7[C@H]6C)nc5)CC4)C3)C2)C(C)(C)C)cc1 in your answer.
# output > 100 nM

# input Let me know recorded DC50 for C#Cc1ccc(CNC(=O)[C@@H]2C[C@@H](O)CN2C(=O)[C@@H](NC(=O)N2CC3(CC(N4CCC(c5cnc(N6CCc7[nH]c8nnc(-c9ccccc9O)cc8c7[C@H]6C)nc5)CC4)C3)C2)C(C)(C)C)c(OCCCOC)c1 , thanks.
# output < 10 nM

# input Supply DC50 value. Item: C#Cc1ccc(CNC(=O)[C@@H]2C[C@@H](O)CN2C(=O)[C@@H](NC(=O)N2CC3(CC(N4CCC(N5CCC(N6CCN7c8cc(-c9ccccc9O)nnc8NC[C@H]7C6)CC5)CC4)C3)C2)C(C)(C)C)cc1
# output 50 to 100 nM

* * *

This listing pairs compounds with measured Dmax.
- Target or test system: SMARCA4 (Homo sapiens, UniProt P51532)
- Construct: SMARCA2/SMARCA4 protein degradation selectivity in MV4-11 cells; endogenous in cells; host or cells: MV4-11
- Sequence (P51532 whole entry): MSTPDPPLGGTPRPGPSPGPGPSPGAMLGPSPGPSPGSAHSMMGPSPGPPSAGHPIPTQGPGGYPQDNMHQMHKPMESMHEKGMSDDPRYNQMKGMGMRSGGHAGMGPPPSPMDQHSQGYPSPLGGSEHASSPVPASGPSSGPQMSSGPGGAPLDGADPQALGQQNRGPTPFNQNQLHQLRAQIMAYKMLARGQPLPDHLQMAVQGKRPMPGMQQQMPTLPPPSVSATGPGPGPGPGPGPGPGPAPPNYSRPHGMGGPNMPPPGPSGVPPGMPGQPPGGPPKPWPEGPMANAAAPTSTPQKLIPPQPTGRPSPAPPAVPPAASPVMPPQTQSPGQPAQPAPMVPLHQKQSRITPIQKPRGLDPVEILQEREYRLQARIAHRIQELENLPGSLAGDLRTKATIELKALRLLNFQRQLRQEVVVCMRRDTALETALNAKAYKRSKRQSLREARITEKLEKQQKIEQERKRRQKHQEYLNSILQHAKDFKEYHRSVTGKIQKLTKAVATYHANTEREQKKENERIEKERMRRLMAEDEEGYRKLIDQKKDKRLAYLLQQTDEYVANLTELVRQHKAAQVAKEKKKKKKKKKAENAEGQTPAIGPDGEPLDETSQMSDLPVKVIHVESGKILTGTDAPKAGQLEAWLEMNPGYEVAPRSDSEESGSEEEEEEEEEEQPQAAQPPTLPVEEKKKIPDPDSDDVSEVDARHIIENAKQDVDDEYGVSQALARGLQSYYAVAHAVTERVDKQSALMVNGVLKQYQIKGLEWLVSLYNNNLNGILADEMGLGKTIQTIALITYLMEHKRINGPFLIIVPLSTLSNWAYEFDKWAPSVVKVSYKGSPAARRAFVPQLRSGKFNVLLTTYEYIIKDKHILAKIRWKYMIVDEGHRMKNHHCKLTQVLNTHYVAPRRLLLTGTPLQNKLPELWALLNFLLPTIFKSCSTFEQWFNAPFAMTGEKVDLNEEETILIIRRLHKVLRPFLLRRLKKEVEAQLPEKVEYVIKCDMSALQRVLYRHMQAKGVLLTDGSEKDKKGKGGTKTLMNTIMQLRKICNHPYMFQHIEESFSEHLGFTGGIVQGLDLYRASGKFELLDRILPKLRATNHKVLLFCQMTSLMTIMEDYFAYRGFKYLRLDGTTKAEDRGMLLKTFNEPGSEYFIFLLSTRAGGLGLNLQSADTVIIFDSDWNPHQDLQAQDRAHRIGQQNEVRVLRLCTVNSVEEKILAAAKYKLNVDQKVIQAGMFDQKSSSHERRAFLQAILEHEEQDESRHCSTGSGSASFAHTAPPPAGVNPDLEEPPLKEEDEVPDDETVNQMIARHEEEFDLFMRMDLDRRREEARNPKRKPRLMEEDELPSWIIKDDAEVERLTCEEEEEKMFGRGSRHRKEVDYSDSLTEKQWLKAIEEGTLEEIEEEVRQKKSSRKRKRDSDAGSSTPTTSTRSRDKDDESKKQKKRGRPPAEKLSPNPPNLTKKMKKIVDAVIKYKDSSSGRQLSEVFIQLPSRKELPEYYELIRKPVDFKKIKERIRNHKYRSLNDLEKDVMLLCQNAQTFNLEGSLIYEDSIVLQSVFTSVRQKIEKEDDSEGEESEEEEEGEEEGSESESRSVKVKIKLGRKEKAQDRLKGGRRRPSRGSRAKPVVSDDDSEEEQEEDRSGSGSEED
- Experimental protocol: SMARCA4 Western blot degradation in MV4-11 cells
- Format: cell-based
- Assay conditions: MV4-11, MV4-11 cells, 24 h; read-out: SMARCA4 MSD MV411 degradation 24 h: average Dmax %

Consider the reported Dmax for these compounds:
compound="C#Cc1ccc(CNC(=O)[C@@H]2C[C@@H](O)CN2C(=O)[C@@H](NC(=O)N2CCC[C@@H](CN3CCC(N4CCC(N5CCN6c7cc(-c8ccccc8O)nnc7NC[C@H]6C5)CC4)CC3)C2)C(C)(C)C)cc1 (single isomer, unassigned)" reported_result="< 50%"
compound="Cc1ncsc1-c1ccc(CNC(=O)[C@@H]2C[C@@H](O)CN2C(=O)[C@@H](NC(=O)N2CC3(CCC(N4CCC(c5cnc(N6CCc7[nH]c8nnc(-c9ccccc9O)cc8c7[C@@H]6C)nc5)CC4)CC3)C2)C(C)(C)C)cc1 (single isomer, unassigned)" reported_result="50 to 70%"
compound="C#CCOc1cc(C(C(=O)N2C[C@H](O)C[C@H]2C(=O)NCc2ccc(-c3scnc3C)cc2O[C@H]2CC[C@H](N3CCC(c4cnc(N5CCc6[nH]c7nnc(-c8ccccc8O)cc7c6[C@H]5C)nc4)CC3)CC2)C(C)C)on1 (single isomer, unassigned)" reported_result="> 90%"
compound="C#Cc1ccc(CNC(=O)[C@@H]2C[C@@H](O)CN2C(=O)[C@@H](NC(=O)[C@H]2CC3(C2)C[C@H](N2CCC(N4CCC(N5CCN6c7cc(-c8ccccc8O)nnc7NC[C@H]6C5)CC4)CC2)C3)C(C)(C)C)c(OC)c1 (single isomer, unassigned)" reported_result="50 to 70%"
compound="C#Cc1ccc([C@H](C)NC(=O)[C@@H]2C[C@@H](O)CN2C(=O)[C@@H](NC(=O)[C@H]2CC3(C2)C[C@H](N2CCC(N4CCC(N5CCN6c7cc(-c8ccccc8O)nnc7NC[C@H]6C5)CC4)CC2)C3)C(C)(C)C)cc1 (single isomer, unassigned)" reported_result="< 50%"
compound="C#CCOc1cc(C(C(=O)N2C[C@H](O)C[C@H]2C(=O)NCc2ccc(-c3scnc3C)cc2O[C@H]2CC[C@H](N3CCC(c4cnc(N5CCc6[nH]c7nnc(-c8ccccc8O)cc7c6[C@@H]5C)nc4)CC3)CC2)C(C)C)on1 (single isomer, unassigned)" reported_result="70 to 90%"
compound=C#Cc1ccc(CNC(=O)[C@@H]2C[C@@H](O)CN2C(=O)[C@@H](NC(=O)N2CC3(CC(N4CCC(N5CCc6[nH]c7nnc(-c8ccccc8O)cc7c6[C@H]5C)CC4)C3)C2)C(C)(C)C)cc1 reported_result="70 to 90%"

# input Determine from records and report Dmax for C#Cc1ccc(CNC(=O)[C@@H]2C[C@@H](O)CN2C(=O)[C@@H](NC(=O)N2CC3(CN(CC4CCN(c5cnc(N6CCc7[nH]c8nnc(-c9ccccc9O)cc8c7[C@@H]6C)nc5)CC4)C3)C2)C(C)(C)C)cc1
# output 70 to 90%

* * *

- Target or test system: UniProt P51531
- Experimental protocol: MSD SMARCA2 degradation in A549 cell line
- Type: cell-based
- Assay conditions: A549 cells
Measured quantity: SMARCA2 MSD A549 degradation 24 h: Average Dmax %

compound="Cc1ncsc1-c1ccc(CNC(=O)[C@@H]2C[C@@H](O)CN2C(=O)[C@@H](NC(=O)[C@H]2CCC3(CC2)C[C@H](N2CCC(c4ccc(N5CCN6c7cc(-c8ccccc8O)nnc7NC[C@H]6C5)nc4)CC2)C3)C(C)(C)C)cc1 (some centres unmarked)" reported_result="A (A (>90% degradation))"
compound="Cc1ncsc1-c1ccc(CNC(=O)[C@@H]2C[C@@H](O)CN2C(=O)[C@@H](NC(=O)[C@H]2CC3(C2)C[C@H](N2CCN(c4cnc(N5CCc6[nH]c7nnc(-c8ccccc8O)cc7c6[C@H]5C)nc4)CC2)C3)C(C)(C)C)cc1 (single isomer, unassigned)" reported_result="A (A (>90% degradation))"

* * *

- Target or test system: SMARCA2 (Homo sapiens)
- Experimental protocol: SMARCA2 Western blot degradation in MV4-11 cells
- Type: cell-based
- Parameters: SMARCA2/SMARCA4 protein degradation selectivity in MV4-11 cells; endogenous in cells; host or cells: MV4-11
- Assay conditions: MV4-11, MV4-11 cells, 24 h; read-out: SMARCA2 MSD MV411 degradation 24 h: average Dmax %
Parameter Dmax: see the listing below.

compound="CC(C)C(C(=O)N1C[C@H](O)C[C@H]1C(=O)NCc1ccc(C#N)cc1)c1cc(N2CC3(CC(N4CCC(c5cnc(N6CCN7c8cc(-c9ccccc9O)nnc8NC[C@H]7C6)nc5)CC4)C3)C2)no1 (stereo partly drawn) [I-20]" reported_result="< 50%"
compound="C#Cc1ccc(CNC(=O)[C@@H]2C[C@@H](O)CN2C(=O)[C@@H](NC(=O)N2CC3(CC(N4CCC(N5CC6(CC(N7CCc8[nH]c9nnc(-c%10ccccc%10O)cc9c8[C@H]7C)C6)C5)CC4)C3)C2)C(C)(C)C)cc1 [I-207]" reported_result="70 to 90%"
compound="C#Cc1ccc(CNC(=O)[C@@H]2C[C@@H](O)CN2C(=O)[C@@H](NC(=O)N2CCN(C[C@H]3CC[C@@H](N4CCC(N5CCN6c7cc(-c8ccccc8O)nnc7NC[C@H]6C5)CC4)CC3)CC2)C(C)(C)C)cc1 [I-255]" reported_result="70 to 90%"
compound="C#Cc1ccc([C@H](C)NC(=O)[C@@H]2C[C@@H](O)CN2C(=O)[C@@H](NC(=O)N2CC3(CC(N4CCC(c5cnc(N6CCc7[nH]c8nnc(-c9ccccc9O)cc8c7[C@H]6C)nc5)CC4)C3)C2)C(C)(C)C)c(OC)c1 [I-167]" reported_result="70 to 90%"
compound="C#Cc1ccc(CNC(=O)[C@@H]2C[C@@H](O)CN2C(=O)[C@@H](NC(=O)N2CCN(CC3CCN([C@H]4CC[C@@H](N5CCN6c7cc(-c8ccccc8O)nnc7NC[C@H]6C5)CC4)CC3)CC2)C(C)(C)C)cc1 [I-216]" reported_result="< 50%"
compound="C#Cc1ccc([C@H](C)NC(=O)[C@@H]2C[C@@H](O)CN2C(=O)[C@@H](NC(=O)[C@H]2CC3(C2)C[C@H](N2CCC(N4CCC(N5CCN6c7cc(-c8ccccc8O)nnc7NC[C@H]6C5)CC4)CC2)C3)C(C)(C)C)cc1 (single isomer, unassigned) [I-213]" reported_result="70 to 90%"
compound="C#Cc1ccc(CNC(=O)[C@@H]2C[C@@H](O)CN2C(=O)[C@@H](NC(=O)[C@H]2CCC3(CC2)C[C@H](N2CCC(N(C)CCN4CCN5c6cc(-c7ccccc7O)nnc6NC[C@H]5C4)CC2)C3)C(C)(C)C)cc1 (single isomer, unassigned) [I-246]" reported_result="70 to 90%"
compound="C#Cc1ccc(CNC(=O)[C@@H]2C[C@@H](O)CN2C(=O)[C@@H](NC(=O)C2CCC3(CC2)CC(N2CCC(N4CC(C(=O)N5CCN6c7cc(-c8ccccc8O)nnc7NC[C@H]6C5)C4)CC2)C3)C(C)(C)C)cc1 (stereo partly drawn) [I-92]" reported_result="70 to 90%"

Attention now shifts to the item below.
# input // fetch Dmax for C#Cc1ccc(CNC(=O)[C@@H]2C[C@@H](O)CN2C(=O)[C@@H](NC(=O)C2CCC3(CC2)CC(N2CCC(c4ccc(N5CCN6c7cc(-c8ccccc8O)nnc7NC[C@H]6C5)cc4)CC2)C3)C(C)(C)C)cc1 (stereo partly drawn) [I-95] ; system: SMARCA2 (Homo sapiens)
# output < 50%
